Molecular target: UniProt:Q95323
Sequence (Q95323 whole entry): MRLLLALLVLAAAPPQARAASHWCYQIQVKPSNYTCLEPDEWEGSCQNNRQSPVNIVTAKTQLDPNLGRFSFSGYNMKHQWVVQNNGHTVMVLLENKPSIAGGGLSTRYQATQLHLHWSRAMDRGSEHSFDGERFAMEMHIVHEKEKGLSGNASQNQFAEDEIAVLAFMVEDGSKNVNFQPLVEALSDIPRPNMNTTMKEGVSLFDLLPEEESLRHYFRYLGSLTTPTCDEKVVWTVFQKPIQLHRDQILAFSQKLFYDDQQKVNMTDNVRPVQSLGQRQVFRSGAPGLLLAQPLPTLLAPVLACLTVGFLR
outcomeMeasure: Ki (nM)

{"smilesRecord": "Cn1nc(S(N)(=O)=O)s/c1=N/C(=O)CN(CCN(CCN(CC(=O)O)CC(=O)O)CC(=O)O)CC(=O)O", "target": "UniProt:Q95323", "Ki / nM": 19}
{"smilesRecord": "NS(=O)(=O)c1ccc(NC(=O)CN(CCN(CCN(CC(=O)O)CC(=O)Nc2ccc(S(N)(=O)=O)cc2F)CC(=O)O)CC(=O)O)c(F)c1", "target": "UniProt:Q95323", "Ki / nM": 18}
{"smilesRecord": "NS(=O)(=O)c1nc2ccc(OC(=O)CN(CCOCCOCCN(CC(=O)O)CC(=O)O)CC(=O)O)cc2s1", "target": "UniProt:Q95323", "Ki / nM": 5}
{"smilesRecord": "NS(=O)(=O)c1ccc(NC(=O)CN(CCN(CC(=O)O)c2ccccc2O)c2ccccc2O)c(Cl)c1", "target": "UniProt:Q95323", "Ki / nM": 108}
{"smilesRecord": "NS(=O)(=O)c1ccc(COC(=O)CNCCNCC(=O)O)cc1", "target": "UniProt:Q95323", "Ki / nM": 350}

[1] NS(=O)(=O)c1cc(S(N)(=O)=O)c(NC(=O)CN(CCN(CCN(CC(=O)O)CC(=O)O)CC(=O)O)CC(=O)O)cc1Cl
[2] NS(=O)(=O)c1ccc(NNC(=O)CN(CCOCCOCCN(CC(=O)O)CC(=O)NNc2ccc(S(N)(=O)=O)cc2)CC(=O)O)cc1
Incoming: When the recorded Ki values are compared, which is smaller: that of 1 or that of 2 ? // respond with label for picked entry
Outgoing: 1
(1: 52 nM, 2: 400 nM)

[1] NS(=O)(=O)c1ccc(CCNC(=O)CN(CCN(CCN(CC(=O)O)CC(=O)NCCc2ccc(S(N)(=O)=O)cc2)CC(=O)O)CC(=O)O)cc1
[2] NS(=O)(=O)c1ccc(CCNC(=O)CN(CCN(CC(=O)O)CC(=O)O)CC(=O)O)cc1
Incoming: Of the two listed items, 1 and 2 , which carries the larger Ki figure? // respond with label for picked entry
Outgoing: 2

[a] NS(=O)(=O)c1ccc(NC(=O)CN(CCN(CCN(CC(=O)O)CC(=O)Nc2ccc(S(N)(=O)=O)cc2I)CC(=O)O)CC(=O)O)c(I)c1
[b] NS(=O)(=O)c1nnc(NC(=O)CN(CCN(CC(=O)O)CC(=O)Nc2nnc(S(N)(=O)=O)s2)CC(=O)O)s1
[c] NS(=O)(=O)c1cccc(NC(=O)CN(CCN(CC(=O)O)CC(=O)O)CC(=O)O)c1
[d] NS(=O)(=O)c1nc2ccc(OC(=O)CN(CCOCCOCCN(CC(=O)O)CC(=O)Oc3ccc4nc(S(N)(=O)=O)sc4c3)CC(=O)O)cc2s1
Incoming: Order these by Ki, descending, and give the full ranking. # the answer lists labels in the order requested
Outgoing: c, a, b, d
(c: 750 nM, a: 24 nM, b: 12 nM, d: 5 nM)

[1] NS(=O)(=O)c1ccc(CCOC(=O)CN(CCOCCOCCN(CC(=O)O)CC(=O)O)CC(=O)O)cc1
[2] NS(=O)(=O)c1cc(S(N)(=O)=O)c(NC(=O)CN(CCN(CC(=O)O)CC(=O)O)CC(=O)O)cc1Cl
Incoming: When the recorded Ki values are compared, which is smaller: that of 1 or that of 2 ? // respond with label for picked entry
Outgoing: 2

* * *

Experiment: Solubility in buffer at pH 7.4
Type: physicochemical
outcomeMeasure: solubility (mM)

{"smilesRecord": "NS(=O)(=O)c1nc2ccc(OCCOC(=O)CN(CC(=O)O)CC(=O)O)cc2s1", "assayResult": 37}
{"smilesRecord": "NS(=O)(=O)c1nnc(NC(=O)CCNC(=O)CN(CCN(CC(=O)O)CC(=O)NCCC(=O)Nc2nnc(S(N)(=O)=O)s2)CC(=O)O)s1", "assayResult": 46}

* * *

Target: Carbonic anhydrase 4 (Bos taurus)
outcomeMeasure: Ki (µM)

The examples below pair each entry with its known result.
{"smilesRecord": "NS(=O)(=O)c1ccc(NC(=O)CN(CCN(CCN(CC(=O)O)CC(=O)O)CC(=O)O)CC(=O)O)c(Cl)c1", "outcomeMeasure": "Ki", "assayResult": 0.032}
{"smilesRecord": "NS(=O)(=O)c1ccc(NC(=O)CN(CCN(CC(=O)O)CC(=O)Nc2ccc(S(N)(=O)=O)cc2Br)CC(=O)O)c(Br)c1", "outcomeMeasure": "Ki", "assayResult": 0.034}

[P] NS(=O)(=O)c1ccc(NC(=O)CN(CCN(CCN(CC(=O)O)CC(=O)Nc2ccc(S(N)(=O)=O)cc2)CC(=O)O)CC(=O)O)cc1
[Q] Cn1nc(S(N)(=O)=O)s/c1=N/C(=O)CN(CCN(CC(=O)O)c1ccccc1O)c1ccccc1O
[R] NS(=O)(=O)c1ccc(NC(=O)CN(CCN(CCN(CC(=O)O)CC(=O)O)CC(=O)O)CC(=O)O)c(F)c1
[S] Cn1nc(S(N)(=O)=O)s/c1=N/C(=O)CN(CCOCCOCCN(CC(=O)O)CC(=O)O)CC(=O)O
Incoming: Order these by Ki, descending, and give the full ranking. # the answer lists labels in the order requested
Outgoing: P, Q, R, S

* * *

Protein target, amino acids: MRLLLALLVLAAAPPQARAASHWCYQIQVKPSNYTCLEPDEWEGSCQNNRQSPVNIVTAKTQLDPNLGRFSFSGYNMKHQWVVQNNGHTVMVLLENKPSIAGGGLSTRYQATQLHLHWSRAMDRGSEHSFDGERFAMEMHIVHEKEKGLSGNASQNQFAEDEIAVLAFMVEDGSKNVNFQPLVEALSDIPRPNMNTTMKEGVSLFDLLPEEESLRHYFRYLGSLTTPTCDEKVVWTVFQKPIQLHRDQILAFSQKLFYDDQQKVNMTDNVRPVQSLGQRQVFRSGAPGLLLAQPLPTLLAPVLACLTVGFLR
outcomeMeasure: Ki (nM)

{"smilesRecord": "Cn1nc(S(N)(=O)=O)s/c1=N/C(=O)CNCC(=O)O", "Ki, nM": 120}

[a] NS(=O)(=O)c1ccc(COC(=O)CN(CCN(CCN(CC(=O)O)CC(=O)OCc2ccc(S(N)(=O)=O)cc2)CC(=O)O)CC(=O)O)cc1
[b] NS(=O)(=O)c1ccccc1NC(=O)CN(CCN(CC(=O)O)c1ccccc1O)c1ccccc1O
Incoming: When the recorded Ki values are compared, which is smaller: that of a or that of b ? // respond with label for picked entry
Outgoing: a
(a: 170 nM, b: 800 nM)

[1] NS(=O)(=O)c1cc(S(N)(=O)=O)c(NC(=O)CN(CCN(CC(=O)O)c2ccccc2O)c2ccccc2O)c(Cl)c1Cl
[2] NS(=O)(=O)c1nnc(NC(=O)CN(CCN(CCN(CC(=O)O)CC(=O)O)CC(=O)O)CC(=O)O)s1
[3] NS(=O)(=O)c1cc(S(N)(=O)=O)c(NC(=O)CN(CCN(CC(=O)O)CC(=O)Nc2c(S(N)(=O)=O)cc(S(N)(=O)=O)c(Cl)c2Cl)CC(=O)O)c(Cl)c1Cl
[4] NS(=O)(=O)c1nc2ccc(OC(=O)CNCCNCC(=O)O)cc2s1
[5] Cn1nc(S(N)(=O)=O)s/c1=N/C(=O)CN(CCOCCOCCN(CC(=O)O)CC(=O)/N=c1/sc(S(N)(=O)=O)nn1C)CC(=O)O
Incoming: Order these by Ki, descending, and give the full ranking. # the answer lists labels in the order requested
Outgoing: 1, 3, 2, 4, 5
(1: 105 nM, 3: 51 nM, 2: 28 nM, 4: 11 nM, 5: 5 nM)

[A] NS(=O)(=O)c1ccc(NC(=O)CNCCNCC(=O)O)c(F)c1
[B] NS(=O)(=O)c1ccc(NC(=O)CN(CCN(CCN(CC(=O)O)CC(=O)Nc2ccc(S(N)(=O)=O)cc2Br)CC(=O)O)CC(=O)O)c(Br)c1
[C] NS(=O)(=O)c1ccc(CCNC(=O)CN(CCOCCOCCN(CC(=O)O)CC(=O)NCCc2ccc(S(N)(=O)=O)cc2)CC(=O)O)cc1
Incoming: Order these by Ki, descending, and give the full ranking. # the answer lists labels in the order requested
Outgoing: A, B, C

* * *

Target: Carbonic anhydrase 4 (Bos taurus)
outcomeMeasure: Ki (nM)

{"smilesRecord": "NS(=O)(=O)c1ccc(NC(=O)CN(CCN(CC(=O)O)CC(=O)Nc2ccc(S(N)(=O)=O)cc2Cl)CC(=O)O)c(Cl)c1", "target": "Carbonic anhydrase 4 (Bos taurus)", "Ki (nM)": 50}

[I] NS(=O)(=O)c1ccccc1NC(=O)CN(CC(=O)O)CC(=O)O
[II] NS(=O)(=O)c1ccc(CNC(=O)CN(CCN(CC(=O)O)CC(=O)NCc2ccc(S(N)(=O)=O)cc2)CC(=O)O)cc1
[III] NS(=O)(=O)c1nnc(NC(=O)CCNC(=O)CN(CCN(CCN(CC(=O)O)CC(=O)O)CC(=O)O)CC(=O)O)s1
[IV] NS(=O)(=O)c1ccc(COC(=O)CNCC(=O)O)cc1
Incoming: Write the entries in order, lowest recorded Ki first. # the answer lists labels in the order requested
Outgoing: III, II, IV, I
(III: 16 nM, II: 62 nM, IV: 350 nM, I: 1200 nM)
